These measurements were taken from the supplement of paper PMC8728848.

measurement.target: Gal(b1-3)GlcNAc(b1-3)Gal(b1-4)GlcNAc(b1-6)[Gal(b1-3)GlcNAc(b1-3)]Gal(b1-4)Glc
test.protocol: glycan array binding signal (z-score within array); higher = stronger binding
details: glycan notation: IUPAC condensed, linker removed
Many of the other results were omitted from the sample, so the strongest signals are more common in it than they were.
Property: glycan array binding signal (z-score); scope: individual binders
endpoint.name: glycan array binding signal (z-score)

| binder | endpoint.name | test.value |
| --- | --- | --- |
| HA-00510 (Pseudomonas aeruginosa), Q02V39_PSEAB (protein) GVPIVNIATPNGAGLSNNHFRDYNVGANGLILNNATGKTQGTQLGGIILGNPNLKGQAAQVILNQVTGGNRSTLAGYTEVAGQSARVIVANPHGITCQGCGFINTPRATLTTGKPIMDGQRLERFQVDGGDIVVEGAELNVGNLEQFDLITRSAKLNAKLYAKNLNIVTGRNDVQADSLQATPRAADGSEKPQLAIDSSALGGMYAGAIRLVGTEQGVGVKLAGDMAASGGDIRIDASGKLSLAQASSQGDLKIAAQAVELNGKTYAGGSAEIRSAEELVNRQS | glycan array binding signal (z-score) | 0.121 |
| Als3-2 (Candida albicans) (protein) KTITGVFNSFNSLTWSNAATYNYKGPGTPTWNAVLGWSLDGTSASPGDTFTLNMPCVFKFTTSQTSVDLTAHGVKYATCQFQAGEEFMTFSTLTCTVSNTLTPSIKALGTVTLPLAFNVGGTGSSVDLEDSKCFTAGTNTVTFNDGGKKISINVDFERSNVDPKGYLTD | glycan array binding signal (z-score) | -0.603 |
| GST Gap3 (Streptococcus parasanguinis) (protein) MTKQLISEIYWNEIRKGENYLYGSQIKFQEDLVNFYNPQLASGKPIVTFKSRTNYQGDRHSPDLPILIQGNRYLLEYQIDAVPANSFFLQLDFFNRQAEQIESIVLRNSGESFIFPKDTFTYTLTLMSAGCQSVTYQKFMIYDINDEEKKNHIVENRYLRELLPKDLDLVKNLIEYI | glycan array binding signal (z-score) | 0.052 |
| SBD-G4S3-SBD (protein) MASIPSSASVQLDSYNYDGSTFSGKIYVKNIAYSKKVTVVYADGSDNWNNNGNIIAASFSGPISGSNYEYWTFSASVKGIKEFYIKYEVSGKTYYDNNNSANYQVSTGGGGSGGGGSGGGGSEFASIPSSASVQLDSYNYDGSTFSGKIYVKNIAYSKKVTVVYADGSDNWNNNGNIIAASFSGPISGSNYEYWTFSASVKGIKEFYIKYEVSGKTYYDNNNSANYQVST | glycan array binding signal (z-score) | -0.42 |
